Hello, the source for this data is patent US12459951B2, in case you need it.

- System: KRas wild type
- testProtocol: Ras GTP Binding Domain Inhibition Assay (Ras Superfamily Assay)
- condition: 20 μM compound, without SOS
measuredEndpoint: KRas wild type: % inh.

Problem: Reported KRas wild type: % inh. for KRas wild type, given COCCNc1nc(-c2nccn2C)nn2cc(-c3cccc(OC)c3Cl)c(C)c12 [Compound 16] ?
Result: 0 (0 = 0% inhibition)

* * *

- System: KRas wild type
- testProtocol: Ras GTP Binding Domain Inhibition Assay (Ras Superfamily Assay)
- condition: 20 μM compound, with SOS
Consider the following compounds; for each one, report its KRas wild type + SOS: % inh..

Consider the worked cases shown below.
compound: CO[C@H]1CC[C@@H](Nc2nc(-c3ccccn3)nn3cc(-c4ccn(C(C)C)n4)c(-c4ccccc4)c23)C1 (racemic)
reading: 0 (0 = 0% inhibition)

compound: COCCO[C@H]1C[C@H](Nc2nc(-c3nccn3C)nn3cc(-c4ccn(C)n4)c(C)c23)C1
reading: 0 (0 = 0% inhibition)

Read the next record carefully.
Problem: // fetch KRas wild type KRas wild type + SOS: % inh. for COC[C@@H]1CC[C@@H]1CNc1nc(-c2ccccn2)nn2cc(-c3ccn(C(C)C)n3)c(-c3ccccc3)c12 (racemic)
Result: 0 (0 = 0% inhibition)

* * *

- systemTested: Rho-A (Homo sapiens, UniProt P61586)
- Construct: made in house
- Sequence (P61586 whole entry): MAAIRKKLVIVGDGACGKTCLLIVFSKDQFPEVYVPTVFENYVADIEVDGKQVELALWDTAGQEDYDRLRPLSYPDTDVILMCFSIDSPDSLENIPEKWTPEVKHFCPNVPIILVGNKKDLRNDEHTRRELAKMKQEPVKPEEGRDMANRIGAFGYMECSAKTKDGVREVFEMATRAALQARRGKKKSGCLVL
- testProtocol: Ras GTP Binding Domain Inhibition Assay (Ras Superfamily Assay)
- condition: read-out: Rho-A: % inh..
Kindly state inhibition at 20 µM for each of the entries shown.

Answered cases to consult:
molecule: COCCCNc1nc(-c2nccn2C)nn2cc(-c3cccc(OC)c3Cl)c(-c3ccccc3)c12
measuredEndpoint: inhibition at 20 µM
reading: 1 to 25%
//
molecule: COc1cccc(Nc2nc(-c3nccn3C)nn3ccc(-c4ccccc4)c23)n1
measuredEndpoint: inhibition at 20 µM
reading: 1 to 25%
//
molecule: COc1cnc(Nc2nc(-c3nccn3C)nn3cc(-c4ccn(C(C)C)n4)c(C)c23)nc1
measuredEndpoint: inhibition at 20 µM
reading: 50 to 75%
//
molecule: Cc1c(-c2ccn(C(C)C)n2)cn2nc(-c3nccn3C)nc(Nc3ccccn3)c12
measuredEndpoint: inhibition at 20 µM
reading: 76 to 100%
//
molecule: Cc1c(-c2ccn(C(C)C)n2)cn2nc(-c3nccn3C)nc(Nc3ccn(C(C)C)n3)c12
measuredEndpoint: inhibition at 20 µM
reading: 76 to 100%

Quick request: inhibition at 20 µM for each listed item, please.
1. COCC1CCN(c2nc(-c3ccccn3)nn3cc(-c4ccn(C(C)C)n4)c(-c4ccccc4)c23)C1 (racemic)
2. COCCNc1nc(-c2nccn2C)nn2cc(-c3cccc(OC)c3Cl)c(C)c12
3. Cc1c(-c2ccn(C(C)C)n2)cn2nc(-c3nccn3C)nc(Nc3cc(C4CC4)no3)c12
4. COc1cccc(Nc2nc(-c3nccn3C)nn3ccc(C)c23)n1

Result:
1 to 25%
0%
1 to 25%
1 to 25%

* * *

- Tested on: KRas Q61H mutant
- testProtocol: Ras GTP Binding Domain Inhibition Assay (Ras Superfamily Assay)
- condition: 20 μM compound, with SOS
measuredEndpoint: KRas Q61H mutant + SOS: % inh.

Solved entries:
compound: COc1cccc(Nc2nc(-c3nccn3C)nn3cc(-c4ccn(C(C)C)n4)c(C)c23)n1
systemTested: KRas Q61H mutant
reading: A (A = 1-25% inhibition)

compound: COc1cccc(-c2cn3nc(-c4nccn4C)nc(N[C@H]4C[C@H](OC)C4)c3c2-c2ccn(C)n2)c1F
systemTested: KRas Q61H mutant
reading: A (A = 1-25% inhibition)

compound: COC[C@@H]1CC[C@@H]1CNc1nc(-c2ccccn2)nn2cc(-c3ccn(C(C)C)n3)c(C)c12 (racemic)
systemTested: KRas Q61H mutant
reading: 0 (0 = 0% inhibition)

compound: COc1cccc(-c2cn3nc(-c4nccn4C)nc(O)c3c2-c2ccccc2)c1Cl
systemTested: KRas Q61H mutant
reading: A (A = 1-25% inhibition)

Attention now turns to another entry.
Problem: KRas Q61H mutant / KRas Q61H mutant + SOS: % inh. / COCC1CCN(c2nc(-c3ccccn3)nn3cc(-c4ccn(C(C)C)n4)c(-c4ccccc4)c23)C1 (racemic) : value?
Result: A (A = 1-25% inhibition)
